- Tested on: biotinyl-Leu-oxazolone
- assay text: self-aminoacylation, catalytic enhancement (BLO) (fold over background); higher = more active; k-Seq, kA / k0A0; sequences stand for … in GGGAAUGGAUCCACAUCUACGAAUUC…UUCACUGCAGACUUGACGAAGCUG
Variants at the floor of the assay were thinned out.
Where self-aminoacylation equals or exceeds 5, the correct label is class 1; where it does not, the label is class 0.

1. UCACACUUCAUGCAAUCGGUC [Fam1B.1 aminoacylation ribozyme variant]    class 0
2. AUUCACCUUCGUCAUCGGGUG [Fam2.2 aminoacylation ribozyme variant]    class 0
3. AUGGACCUAGGUCAUCGGGUG [Fam2.2 aminoacylation ribozyme variant]    class 0
4. AUUUACCUAGGUUAUCGGGUG [Fam2.2 aminoacylation ribozyme variant]    class 0
5. AUUCACCUAGGUCAGGGGGUG [Fam2.2 aminoacylation ribozyme variant]    class 0
6. AUUACCCUGAUCAUGGAGUGA [Fam2.1 aminoacylation ribozyme variant]    class 1
7. AUUACCCUGUUCAUCGAGUGA [Fam2.1 aminoacylation ribozyme variant]    class 1

---

- Tested on: biotinyl-Ile-oxazolone
- assay text: self-aminoacylation, catalytic enhancement (BIO) (fold over background); higher = more active; k-Seq, kA / k0A0; sequences stand for … in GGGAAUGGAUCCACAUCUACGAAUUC…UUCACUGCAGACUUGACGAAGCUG
Fewer inactive variants are shown than the library holds.
Where self-aminoacylation equals or exceeds 3, the correct label is class 1; where it does not, the label is class 0.

1) CUACACUUCAAGCAAUCGGGC [Fam1B.1 aminoacylation ribozyme variant]    class 0
2) AAUCACCUAGGCCAUCGGGUG [Fam2.2 aminoacylation ribozyme variant]    class 0
3) AUUCCCCUAGGACAUCGGGUG [Fam2.2 aminoacylation ribozyme variant]    class 1
4) AAUCACCUAGGGCAUCGGGUG [Fam2.2 aminoacylation ribozyme variant]    class 1
5) AUUCACCGCGGUCAUCGGGUG [Fam2.2 aminoacylation ribozyme variant]    class 1
6) AUACACCUAGGUUAUCGGGUG [Fam2.2 aminoacylation ribozyme variant]    class 0
7) AUUAGCCUGGUCAUCCAGUGA [Fam2.1 aminoacylation ribozyme variant]    class 0
8) CAACUUCAAACAAUCGUUCUG [Fam1A.1 aminoacylation ribozyme variant]    class 0

---

- Test system: biotinyl-Met-oxazolone
- assay text: self-aminoacylation, catalytic enhancement (BMO) (fold over background); higher = more active; k-Seq, kA / k0A0; sequences stand for … in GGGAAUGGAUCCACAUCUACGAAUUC…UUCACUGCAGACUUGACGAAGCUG
Variants at the floor of the assay were thinned out.
Classes are defined on self-aminoacylation with ranges A: < 1; B: ≥ 1 and < 3; C: ≥ 3

1) AAGGUUGCUAAUAUUCGCAAG [Fam3.1 aminoacylation ribozyme variant]    B
2) CCUCACUUCAAGCAAUCGCUC [Fam1B.1 aminoacylation ribozyme variant]    B
3) AUUCGCUUAGGUCAUCGGGUG [Fam2.2 aminoacylation ribozyme variant]    C
4) GUUCACCCAGGUCAUCGGGUG [Fam2.2 aminoacylation ribozyme variant]    C
5) CCACACUUAAAGCAAUCGGCC [Fam1B.1 aminoacylation ribozyme variant]    B
6) AUUCUCCUCGGUCAUCGGGUG [Fam2.2 aminoacylation ribozyme variant]    C
7) AAGGUUGCUAAUAGUCUCAAG [Fam3.1 aminoacylation ribozyme variant]    B
8) CCACACUUCAACCAAUCUGUC [Fam1B.1 aminoacylation ribozyme variant]    A
9) AAGUGUGCCAAUAGUCGCAAG [Fam3.1 aminoacylation ribozyme variant]    B
10) CGACACUUCAAGGAAUCGGUC [Fam1B.1 aminoacylation ribozyme variant]    B
11) CUACUUAAACCAAUCGGUCUG [Fam1A.1 aminoacylation ribozyme variant]    A
12) AAGUCUGCAAAUAGUCGCAAG [Fam3.1 aminoacylation ribozyme variant]    A
13) AAGUUUGCUAAUAAUCACAAG [Fam3.1 aminoacylation ribozyme variant]    B
14) ACACACUACAAGCAAUCGGUC [Fam1B.1 aminoacylation ribozyme variant]    A
15) CCACACUUCAAGCAUUAGGUC [Fam1B.1 aminoacylation ribozyme variant]    A
16) AUUCACCAAGGACAUCGGGUG [Fam2.2 aminoacylation ribozyme variant]    C
17) AUUCACCUAAGUCUUCGGGUG [Fam2.2 aminoacylation ribozyme variant]    C
18) AUUCACCUAGGUCAUGGGGUU [Fam2.2 aminoacylation ribozyme variant]    B
19) AUGACCCUGGUCAACGAGUGA [Fam2.1 aminoacylation ribozyme variant]    C
20) AUUACCCUAGUCAUCCAGUGA [Fam2.1 aminoacylation ribozyme variant]    B
21) AUUACCCAGGUCGUCGAGUGA [Fam2.1 aminoacylation ribozyme variant]    A
22) AUUACCCUGGUCAUCGAGUUU [Fam2.1 aminoacylation ribozyme variant]    C
23) CCUCACUUCAAGCAAUUGGUC [Fam1B.1 aminoacylation ribozyme variant]    A

Hey, just so you know, these numbers are from the supplement of paper PMC9233669.
